- Tested on: LXRb homodimer (NR concentration 270 nM)
- ASSAY_PROCEDURE: PBM binding z-score (relative to random genomic background probes); higher = stronger binding; sequences stand for … in GC…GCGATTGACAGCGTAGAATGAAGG
# binarize PBM binding z-score: threshold -0.4 inclusive, high side y, low side n

TTACCAAGGTGAAAGGTCCTTGATGCACGCCTTG; n

Now look at this entry.
Qu. Is PBM binding z-score at least -0.4? Consider "CTTGAAAGGTCGGTTGAGGTGAGTATACGGATAA"
Ans. y

----------
Overview of reported PBM binding z-score across a group of sequences:
- Test system: PPARg DBDmut:RXRa IVT, anti-PPARg (DBD mutation: PPARg1 K132A/R137A, NR concentration 270 nM, RXRa partner concentration 90 nM)
- ASSAY_PROCEDURE: PBM binding z-score (relative to random genomic background probes); higher = stronger binding; sequences stand for … in GC…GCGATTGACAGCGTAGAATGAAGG

Use these answered entries as a reference point.
TGAATGAGGTTAAAGATCAGGGTACGTGGCGTCG; 1.21
TCTGCTAGGTCAACGATCGTCAGCTAATCTGCTA; -0.071
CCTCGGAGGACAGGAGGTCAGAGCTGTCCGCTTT; -1.92
ATATGTAGGTTACATCCGGATCATTCAGGCTATG; 3.14
CTACCAAGGTGAACAAGGTGGTTGATTACTATTC; 0.24

Qu. Could you share which PBM binding z-score value was measured for "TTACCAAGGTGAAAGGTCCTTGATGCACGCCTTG" ?
Ans. -0.24

----------
- Tested on: PPARg:RXRa 30nM:10nM, anti-RXR (NR concentration 30 nM, RXRa partner concentration 10 nM)
- ASSAY_PROCEDURE: PBM binding z-score (relative to random genomic background probes); higher = stronger binding; sequences stand for … in GC…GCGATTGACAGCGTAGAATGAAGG
List of PBM binding z-score values.
Write the value as a bare number.

Field: example entries. Status: answers known.
TTACCAAGATGAAAGGTCGTTGATGCACGCCTTG; 3.89
TGTCAAAGTTCAAACGTAACGTAAGTATCCACAC; 5.26
GCTAGTTGGGCAGTAAAAGGTCACACACCGGTCG; 1.65

Qu. Item "TCTTGTAGATCAAGCAGGTTCAGAAAGCCTGAGT" has what recorded PBM binding z-score?
Ans. 2.45

Qu. What value of PBM binding z-score has been recorded for this entry: "TCTATTAGTTGAAGGGCAATCGACGAGTCCGTTT"
Ans. 3.75

Qu. Fill in the blank: the reported PBM binding z-score of "TCTTGTAGAACAATAGAGGTTAAGAAAGTGCGCT" is ____.
Ans. 2.64

Qu. May I ask what PBM binding z-score has been recorded for "CCGACTGGGGCAGACAGGTTACCATACCATCCGG" ?
Ans. -0.675

Qu. Please report the recorded PBM binding z-score for "TCTTGTAGATCAGCTGGTTAAGAAAGCTGGCCAA" .
Ans. 2.43

Qu. For the sequence "TCATATAGGTAAATGCTAGGGGAAAGTCCGATCT" , what PBM binding z-score is on record?
Ans. 3.88

Qu. Recorded PBM binding z-score for "AATACAGGGTCATCGTAGGCCAGAATACGCACAG" , please?
Ans. 2.64

Qu. Can you share its PBM binding z-score? I mean this sequence: "TCATATACGTAAACAGGTGAAAGTCCGTAAGTTA"
Ans. 4.45

Qu. Report PBM binding z-score for "CCTTACGGGTCACTCCAGGTTAAAGCATCGGAGT" please.
Ans. 1.02

----------
- System: PPARg:RXRa 30nM:10nM, anti-RXR (NR concentration 30 nM, RXRa partner concentration 10 nM)
- ASSAY_PROCEDURE: PBM binding z-score (relative to random genomic background probes); higher = stronger binding; sequences stand for … in GC…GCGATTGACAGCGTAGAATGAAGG
Classification field: Satisfied = PBM binding z-score at or over 2; Not satisfied = PBM binding z-score under 2.

Qu. Form field: PBM binding z-score at least 2? Entry: "CCTTACGGGTCACTGACAGGATATAGCATTTGGA"
Ans. Not satisfied

Qu. hey, is PBM binding z-score for this one >= 2? "CTACCAAGGTGAACTAGGTCGTTGATTACTATTC"
Ans. Not satisfied

----------
- Tested on: PPARa:RXRa (NR concentration 270 nM, RXRa partner concentration 90 nM)
- ASSAY_PROCEDURE: PBM binding z-score (relative to random genomic background probes); higher = stronger binding; sequences stand for … in GC…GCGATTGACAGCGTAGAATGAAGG
Returns one of T or F; T when PBM binding z-score is >= 2.

Consider the following illustrative entries.
ACTATTACTTGACTTAGGGCAACCGATACGACGC; F
CCGAGTAGGTTTTGGGGCATTCAGGCAACGGTGA; F
ATCTCTAGGTAAAAGATCAGTGAATCCCGAGGAT; T
AGAACGAGAGCAATGAGTTGATAGCACGGGTGGC; F
ACTAGCAGGCCATGTTTGGGTCACTCAAACAAAG; F

Qu. Given "GTACCAAGGTGAATAGGTCGTTCATGAGTAGGCG" , state whether its PBM binding z-score is at least 2.
Ans. T

----------
- System: RARb homodimer (NR concentration 270 nM)
- ASSAY_PROCEDURE: PBM binding z-score (relative to random genomic background probes); higher = stronger binding; sequences stand for … in GC…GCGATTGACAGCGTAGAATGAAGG
PBM binding z-score of 2 or higher: class 1. Under 2: class 0.

Worked examples follow.
GCTTGTAGATCTAGGTTAAGAAAGACTAAGCTAA; class 0
TCTATGAGTTGAAGGGCAACCGACGAGTCCGTTT; class 0
GCATATAGGTAATCCAAGGTGAAAGTCCGATTGT; class 0

Now turn to the next sequence.
Qu. Quick check, PBM binding z-score >= 2? "TCAGACGGGTGAAGGTAACTCAGGTACGCAGTCG"
Ans. class 0

----------
- Test system: PPARg DBDmut IVT, anti-PPARg (DBD mutation: PPARg1 K132A/R137A, NR concentration 270 nM)
- ASSAY_PROCEDURE: PBM binding z-score (relative to random genomic background probes); higher = stronger binding; sequences stand for … in GC…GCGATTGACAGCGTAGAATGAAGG
REPORTED_PROPERTY: PBM binding z-score
I'd appreciate a reply containing only the number, no unit.

Previously resolved entries follow.
ACAGACAGGTGAGTGAAGGTAACGCAGCTGGACG; -0.822
CTTCAAAGTTCAAGGTAACGTAACAGAAAGCAGC; 1
CCTTCCGGGTCACGAGGTTATAGCACGACGAGCG; -0.0446
CAGCCTAGGTCAGGGCCAGTGTAGGAGGAACGTT; -1.49
ATCTCTAGGTAAGACTCAGTTCAGTGAAGAACGC; 1.16
AATACAGGGTCAGCGTAGGCCAGAGTACGCACAG; 1.65
CCTACTGGGCCATGAGGTCATTGATATCAACGTT; -0.0861
CCGACTGGGGCAAAGTTTACCATACTCAGTACGA; -0.571
TCATATTGGTAATACAGGTGAAAGTCGGCATCTA; 1.85
AGAATGAGGTTATACGTAGATCAGGAAAGAAAGT; 0.76

Qu. Looking for the measured PBM binding z-score of "TGAATGAGGTTAAAAGATCAGGGAACGTTGCAAA" , can you help?
Ans. 0.45

Qu. Any idea what its PBM binding z-score is? The sequence is "CTCGAAAGGTCGGTTGAGTTGAGTATACGGATAA"
Ans. 0.673

----------
- Test system: PPARg:RXRa 30nM:10nM, anti-RXR (NR concentration 30 nM, RXRa partner concentration 10 nM)
- ASSAY_PROCEDURE: PBM binding z-score (relative to random genomic background probes); higher = stronger binding; sequences stand for … in GC…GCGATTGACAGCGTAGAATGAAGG
REPORTED_PROPERTY: PBM binding z-score
Give the value as a plain number.

GCATATAGCTAATACAAGGTGAAAGTCCGATTGT; -0.0371
CTCGGAAGGTCGTGCTCAGGTGAGTATACCAAAC; 0.069
ACAGACACGTGATGAAGGTAACTCAGGCTATCAT; 0.0893
TCATATAGGTAATACAGGTGAAAGTCGGCATCTA; 4.12
ATACCAAGGTGATCGTGAGGTAGTTGATACTAAC; -0.0247

// next entry
Qu. Need PBM binding z-score, item "GCAGACAGGTGAAACGCAGGTACCTCAGGGTGGC"
Ans. -0.666

The origin of these recorded values is the supplement of paper PMC6555819.
